melting point for assorted molecules
Output spec: scalar in °C, unitless text.

Below: 5 molecules and their reported melting point.
{"molecule": "CN(C)c1ccc(/C=C/C(=O)N2CCc3c([nH]c4ccccc34)[C@H]2c2ccc3c(c2)CCO3)cn1", "melting point (°C)": 171}
{"molecule": "O=C(/C=C/c1cccnc1)N1CCc2c([nH]c3ccccc23)C1c1ccc2c(c1)OCO2 (stereo not shown)", "melting point (°C)": 240}
{"molecule": "CN(C)Cc1ccc(/C=C/C(=O)N2CCc3c([nH]c4ccccc34)[C@H]2c2ccc3c(c2)CCO3)cn1", "melting point (°C)": 163}
{"molecule": "CN(C)CCOc1ccc(/C=C/C(=O)N2CCc3c([nH]c4ccccc34)[C@H]2c2ccc3c(c2)CCO3)cn1", "melting point (°C)": 155}
{"molecule": "CNc1ccc(/C=C/C(=O)N2CCc3c([nH]c4ccccc34)[C@H]2c2ccc3c(c2)CCO3)cn1", "melting point (°C)": 171}

[ask] Supply measured melting point of "O=C(/C=C/c1ccc(N2CCCC2)nc1)N1CCc2c([nH]c3ccccc23)[C@H]1c1ccc2c(c1)CCO2" in your reply.
[reply] 201

[ask] Provide melting point value for the following molecule: "O=C(O)c1ccc(/C=C/C(=O)N2CCc3c([nH]c4ccccc34)[C@H]2c2ccc3c(c2)CCO3)nc1"
[reply] 183
